Target: ABCB1 (P-glycoprotein; MDR1) (Homo sapiens, UniProt P08183)
Sequence (P08183 whole entry): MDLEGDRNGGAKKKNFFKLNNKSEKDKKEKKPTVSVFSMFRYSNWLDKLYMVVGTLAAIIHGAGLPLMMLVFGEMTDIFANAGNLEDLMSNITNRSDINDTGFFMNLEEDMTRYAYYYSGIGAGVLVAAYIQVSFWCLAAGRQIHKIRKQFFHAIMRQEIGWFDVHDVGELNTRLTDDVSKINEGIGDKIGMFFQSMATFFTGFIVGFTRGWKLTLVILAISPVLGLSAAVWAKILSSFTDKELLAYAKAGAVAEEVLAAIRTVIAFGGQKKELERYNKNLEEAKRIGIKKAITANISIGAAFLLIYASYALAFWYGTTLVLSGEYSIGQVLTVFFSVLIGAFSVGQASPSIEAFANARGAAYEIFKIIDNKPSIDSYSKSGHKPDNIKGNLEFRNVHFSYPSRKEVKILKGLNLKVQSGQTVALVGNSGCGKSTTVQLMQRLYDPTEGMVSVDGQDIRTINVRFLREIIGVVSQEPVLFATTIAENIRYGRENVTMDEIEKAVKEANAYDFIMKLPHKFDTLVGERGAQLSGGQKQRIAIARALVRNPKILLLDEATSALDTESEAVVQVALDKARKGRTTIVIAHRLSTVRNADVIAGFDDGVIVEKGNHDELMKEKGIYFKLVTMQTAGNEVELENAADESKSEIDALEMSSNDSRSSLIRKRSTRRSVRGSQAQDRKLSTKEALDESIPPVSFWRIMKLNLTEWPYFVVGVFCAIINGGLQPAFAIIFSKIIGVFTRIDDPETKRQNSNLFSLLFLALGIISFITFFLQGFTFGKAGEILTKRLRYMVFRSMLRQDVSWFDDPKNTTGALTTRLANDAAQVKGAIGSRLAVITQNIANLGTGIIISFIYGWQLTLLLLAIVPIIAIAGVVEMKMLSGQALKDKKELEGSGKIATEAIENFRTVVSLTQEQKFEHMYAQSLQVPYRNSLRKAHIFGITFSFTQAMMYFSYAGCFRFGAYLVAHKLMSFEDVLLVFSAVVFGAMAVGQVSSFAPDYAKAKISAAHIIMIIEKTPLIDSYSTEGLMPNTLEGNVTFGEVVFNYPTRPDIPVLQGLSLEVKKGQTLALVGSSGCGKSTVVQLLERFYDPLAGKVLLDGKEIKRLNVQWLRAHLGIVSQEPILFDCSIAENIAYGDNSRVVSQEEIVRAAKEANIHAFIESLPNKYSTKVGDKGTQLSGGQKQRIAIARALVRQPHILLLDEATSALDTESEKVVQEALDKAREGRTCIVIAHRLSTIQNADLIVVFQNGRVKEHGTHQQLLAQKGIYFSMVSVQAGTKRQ
Experiment: vanadate-sensitive ATPase stimulation in High-Five insect cell membrane vesicles; also calcein-AM efflux inhibition in MDR19-HEK293 cells (IC50 […])
pEC50: −log10 of the molar value.
observable: pEC50

[[record]]
compound = "C=CC(=O)Nc1cc(Nc2nccc(-c3cn(C)c4ccccc34)n2)c(OCC(F)(F)F)nc1N(C)CCN(C)C [furmonertinib]"
test_value = "~6.22"


----------
Molecular target: ABCG2 (BCRP; MXR; ABCP) (Homo sapiens)
Sequence (Q9UNQ0 whole entry): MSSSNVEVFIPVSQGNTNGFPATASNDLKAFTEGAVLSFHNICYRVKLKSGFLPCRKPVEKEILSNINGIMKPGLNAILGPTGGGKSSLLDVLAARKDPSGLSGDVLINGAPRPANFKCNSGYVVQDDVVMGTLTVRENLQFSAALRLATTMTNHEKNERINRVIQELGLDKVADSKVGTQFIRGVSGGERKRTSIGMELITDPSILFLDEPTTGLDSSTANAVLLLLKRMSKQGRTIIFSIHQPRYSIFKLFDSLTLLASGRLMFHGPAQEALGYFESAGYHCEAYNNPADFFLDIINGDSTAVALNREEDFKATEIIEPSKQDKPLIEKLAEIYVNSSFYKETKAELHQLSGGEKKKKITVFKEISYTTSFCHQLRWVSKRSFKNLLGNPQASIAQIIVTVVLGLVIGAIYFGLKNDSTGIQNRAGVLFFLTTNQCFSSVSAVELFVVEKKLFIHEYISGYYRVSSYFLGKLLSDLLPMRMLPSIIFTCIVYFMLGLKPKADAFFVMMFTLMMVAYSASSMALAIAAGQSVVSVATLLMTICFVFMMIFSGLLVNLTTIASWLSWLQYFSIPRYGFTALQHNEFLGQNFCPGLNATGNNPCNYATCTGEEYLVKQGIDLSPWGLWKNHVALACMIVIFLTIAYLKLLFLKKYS
Assay: vanadate-sensitive ATPase stimulation in High-Five insect cell membrane vesicles; also PhA efflux inhibition in R482-HEK293 cells (IC50 […])
pEC50: −log10 of the molar value.
observable: pEC50

[[record]]
record_smiles = "C=CC(=O)Nc1cc(Nc2nccc(-c3cn(C)c4ccccc34)n2)c(OCC(F)(F)F)nc1N(C)CCN(C)C"
test_value = "~8.52"

